# Test system: SARS coronavirus
# assay.summary: microbe, parasite or virus in culture
# Format: cell-based
# recorded.conditions: Severe acute respiratory syndrome coronavirus, read-out: In-Vitro Antiviral Screening Result (EC50) F
assay.readout: EC50

Guide cases for EC50, answers given:
1. CC(=O)OCC1(C)C(OC(C)=O)CCC2(C)C(/C=C/C3=CCOC3=O)C3C(=Nc4cncn43)CC12 (centres unmarked) [Example 95] :: < 50 µg/mL
2. C=C1CCC2C(C)(CO)C(O)CCC2(C)C1CC(NC12CN3CN(CN(C3)C1)C2)C1=CCOC1=O (centres unmarked) [Example 57] :: < 50 µg/mL
3. C=C1CCC2C(C)(CO)C(O)CCC2(C)C1/C=C/C1=CC(=C\c2ccc(Cl)cc2Cl)/OC1=O (centres unmarked) [Example 35] :: < 50 µg/mL
4. Cn1cc(/C=C2C=C(/C=C/C3C4(CCC5[C@]3(C)CC[C@@H](O)[C@@]5(C)CO)CO4)C(=O)O\2)c2cnc(N)nc21 (some centres unmarked) [Example 59] :: < 50 µg/mL
5. CCN(CC)c1ccc(/C=C2C=C(/C=C/C3C4(CCC5[C@]3(C)CC[C@@H](O)[C@@]5(C)CO)CO4)C(=O)O\2)c(O)c1 (some centres unmarked) [Example 66] :: < 100 µg/mL

Enquiry: Form field: EC50 recorded for C[C@]12CC[C@@H](O)[C@@](C)(CO)C1CCC1(CO1)C2/C=C/C1=CC(=C\c2cnc(N3CCCC3CO)nc2)/OC1=O (some centres unmarked) [Example 69] with SARS coronavirus (enter value)
Return: < 50 µg/mL

Enquiry: Form field: EC50 recorded for COc1cc(/C=C2C=C(/C=C/C3C4(CCC5[C@]3(C)CC[C@@H](O)[C@@]5(C)CO)CO4)C(=O)O\2)cc([N+](=O)[O-])c1O (some centres unmarked) [Example 41] with SARS coronavirus (enter value)
Return: < 100 µg/mL

Enquiry: Form field: EC50 recorded for C=C1CCC2[C@](C)(CC[C@@H](O)[C@@]2(C)CO)C1/C=C/C1=CC(=C\c2ccc(N(C)C)cc2)/OC1=O (some centres unmarked) [Example 37] with SARS coronavirus (enter value)
Return: < 50 µg/mL

====

# System: SARS coronavirus
# assay.summary: microbe, parasite or virus in culture
# Type: cell-based
# recorded.conditions: Severe acute respiratory syndrome coronavirus, read-out: In-Vitro Antiviral Screening Result (EC50) F
assay.readout: EC50

1. C[C@]12CC[C@@H](O)[C@@](C)(CO)C1CCC1(CO1)C2/C=C/C1=CC(=C\c2cnc(N)[nH]c2=O)/OC1=O (stereo partly drawn) [Example 38] :: < 50 µg/mL
2. C=C1CCC2[C@](C)(CC[C@@H](O)[C@@]2(C)CO)C1/C=C/C1=CC(=C\c2ccc(N(C)C)cc2O)/OC1=O (stereo partly drawn) [Example 44] :: < 50 µg/mL
3. CN(C)c1ccc(/C=C2C=C(/C=C/C3C4(CCC5[C@]3(C)CC[C@@H](O)[C@@]5(C)CO)CO4)C(=O)O\2)c(O)c1 (stereo partly drawn) [Example 78] :: < 50 µg/mL

Enquiry: Requested read-out: EC50. Entry: C=C1C(NC(C)C(=O)NC2=NCC=N2)CC2[C@](C)(CC[C@@H](O)[C@@]2(C)CO)C1/C=C/C1=CC(=C\c2ccc(N(C)C)cc2)/OC1=O (stereo partly drawn) [Example 188]
Return: < 50 µg/mL

Enquiry: Requested read-out: EC50. Entry: C=C1CCC2[C@](C)(CC[C@@H](O)[C@@]2(C)CO)C1/C=C/C1=CC(=C\c2cn(C)c3nc(N)ncc23)/OC1=O (stereo partly drawn) [Example 46]
Return: < 50 µg/mL

Enquiry: Requested read-out: EC50. Entry: C=C1CCC2[C@](C)(CC[C@@H](O)[C@@]2(C)CO)C1/C=C/C1=CC(=C\c2ccc(-n3ccnc3)cc2)/OC1=O (stereo partly drawn) [Example 79]
Return: < 50 µg/mL

Just for reference, patent US20150150893A1 is where these values come from.
